TARGET OR SYSTEM: BIKE kinase domain (biotinylated) (Homo sapiens)
Sequence (Q9NSY1 38-345 limits assumed): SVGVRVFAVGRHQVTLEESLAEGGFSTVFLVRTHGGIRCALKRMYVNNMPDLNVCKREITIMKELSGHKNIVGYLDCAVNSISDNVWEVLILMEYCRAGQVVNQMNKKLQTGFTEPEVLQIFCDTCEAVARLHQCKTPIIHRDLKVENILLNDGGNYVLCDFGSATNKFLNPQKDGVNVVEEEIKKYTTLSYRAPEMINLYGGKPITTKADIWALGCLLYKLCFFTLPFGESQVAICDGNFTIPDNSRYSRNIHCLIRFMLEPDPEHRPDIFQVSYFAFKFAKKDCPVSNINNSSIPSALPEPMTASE
MEASURED PROPERTY: Ki (µM)
Please give a number only; it is taken to be in µM.

Task: // query Ki value for entry CC(C)C(=O)Nc1n[nH]c2cc(-c3cccc(NS(=O)(=O)C4CC4)c3)ccc12
Output: 3.1
